- method summary: Multiple-dose trial, plasma pharmacokinetics
- Assay type: in vivo, human
- assay setup: both sexes, human, plasma, po, 200 mg, 200 mg qd oral after breakfast, Day 15
measured parameter: AUC(0-t)
A complete answer gives the number and then names the unit.

Item CC(C)=CCC[C@](C)(OC1O[C@H](CO)[C@@H](O)[C@H](O)[C@H]1O)[C@H]1CC[C@]2(C)[C@@H]1[C@H](O)C[C@@H]1[C@@]3(C)CC[C@H](O)C(C)(C)[C@@H]3CC[C@]12C (stereo partly shown) has what recorded AUC(0-t)? 31600 ng·h/mL

###

- method summary: Multiple-dose trial, plasma pharmacokinetics
- Format: in vivo, human
- assay setup: both sexes, human, plasma, po, 100 mg, 100 mg qd oral after breakfast, Day 15, read-out: Cmax
measured parameter: Cmax (ng/mL)
Dear colleague, please return just the value in ng/mL, with no unit written.

Item CC(C)=CCC[C@](C)(OC1O[C@H](CO)[C@@H](O)[C@H](O)[C@H]1O)[C@H]1CC[C@]2(C)[C@@H]1[C@H](O)C[C@@H]1[C@@]3(C)CC[C@H](O)C(C)(C)[C@@H]3CC[C@]12C (stereo partly shown) [CK] has what recorded Cmax? 934

###

- method summary: Single-dose trial, plasma pharmacokinetics
- Assay type: in vivo, human
- assay setup: both sexes, human, plasma, po, 25 mg, single-dose trial, 25 mg oral, fasting; read-out: Tmax, median (range)
measured parameter: Tmax (h)
Dear colleague, please return just the value in h, with no unit written.

Item CC(C)=CCC[C@](C)(OC1O[C@H](CO)[C@@H](O)[C@H](O)[C@H]1O)[C@H]1CC[C@]2(C)[C@@H]1[C@H](O)C[C@@H]1[C@@]3(C)CC[C@H](O)C(C)(C)[C@@H]3CC[C@]12C (stereo partly shown) has what recorded Tmax? 3

###

- method summary: Multiple-dose trial, plasma pharmacokinetics
- Assay type: in vivo, human
- assay setup: both sexes, human, plasma, po, 200 mg, 200 mg oral after breakfast, Day 1, read-out: Cmax
measured parameter: Cmax (ng/mL)
Dear colleague, please return just the value in ng/mL, with no unit written.

Item CC(C)=CCC[C@](C)(OC1O[C@H](CO)[C@@H](O)[C@H](O)[C@H]1O)[C@H]1CC[C@]2(C)[C@@H]1[C@H](O)C[C@@H]1[C@@]3(C)CC[C@H](O)C(C)(C)[C@@H]3CC[C@]12C (stereo partly shown) has what recorded Cmax? 2880

###

- method summary: Multiple-dose trial, plasma pharmacokinetics
- Format: in vivo, human
- assay setup: both sexes, human, plasma, po, 400 mg, 400 mg oral after breakfast, Day 1
measured parameter: AUC(0-inf) (µg·h/mL)
Dear colleague, please return just the value in µg·h/mL, with no unit written.

Item CC(C)=CCC[C@](C)(OC1O[C@H](CO)[C@@H](O)[C@H](O)[C@H]1O)[C@H]1CC[C@]2(C)[C@@H]1[C@H](O)C[C@@H]1[C@@]3(C)CC[C@H](O)C(C)(C)[C@@H]3CC[C@]12C (stereo partly shown) has what recorded AUC(0-inf)? 44.9

###

- method summary: Multiple-dose trial, plasma pharmacokinetics
- Format: in vivo, human
- assay setup: female, human, plasma, oral, Day 15, Female, read-out: t1/2 (converted)
measured parameter: half-life (h)
Dear colleague, please return just the value in h, with no unit written.

Item CC(C)=CCC[C@](C)(OC1O[C@H](CO)[C@@H](O)[C@H](O)[C@H]1O)[C@H]1CC[C@]2(C)[C@@H]1[C@H](O)C[C@@H]1[C@@]3(C)CC[C@H](O)C(C)(C)[C@@H]3CC[C@]12C (stereo partly shown) [CK] has what recorded half-life? 36.3

###

- method summary: Multiple-dose trial, plasma pharmacokinetics
- Format: in vivo, human
- assay setup: both sexes, human, plasma, po, 100 mg, 100 mg qd oral after breakfast, Day 15
measured parameter: AUC(0-inf) (ng·h/mL)
Dear colleague, please return just the value in ng·h/mL, with no unit written.

Item CC(C)=CCC[C@](C)(OC1O[C@H](CO)[C@@H](O)[C@H](O)[C@H]1O)[C@H]1CC[C@]2(C)[C@@H]1[C@H](O)C[C@@H]1[C@@]3(C)CC[C@H](O)C(C)(C)[C@@H]3CC[C@]12C (stereo partly shown) has what recorded AUC(0-inf)? 11100

###

- method summary: Multiple-dose trial, plasma pharmacokinetics
- Type: in vivo, human
- assay setup: both sexes, human, plasma, po, 100 mg, 100 mg oral after breakfast, Day 1
measured parameter: MRT inf (h)
Dear colleague, please return just the value in h, with no unit written.

Item CC(C)=CCC[C@](C)(OC1O[C@H](CO)[C@@H](O)[C@H](O)[C@H]1O)[C@H]1CC[C@]2(C)[C@@H]1[C@H](O)C[C@@H]1[C@@]3(C)CC[C@H](O)C(C)(C)[C@@H]3CC[C@]12C (stereo partly shown) has what recorded MRT inf? 14.6

###

- method summary: Multiple-dose trial, plasma pharmacokinetics
- Format: in vivo, human
- assay setup: both sexes, human, plasma, 200 mg qd oral after breakfast, Day 15, steady state, read-out: Cmin
measured parameter: concentration at 15 day (ng/mL)
Dear colleague, please return just the value in ng/mL, with no unit written.

Item CC(C)=CCC[C@](C)(OC1O[C@H](CO)[C@@H](O)[C@H](O)[C@H]1O)[C@H]1CC[C@]2(C)[C@@H]1[C@H](O)C[C@@H]1[C@@]3(C)CC[C@H](O)C(C)(C)[C@@H]3CC[C@]12C (stereo partly shown) [CK] has what recorded concentration at 15 day? 1030

###

- method summary: Phase 0 cross-over trial, sex differences in pharmacokinetics
- Assay type: in vivo, human
- assay setup: human, plasma, oral; phase 0 trial, Female (n = 12); read-out: Tmax, median (range)
measured parameter: Tmax (h)
Dear colleague, please return just the value in h, with no unit written.

Item CC(C)=CCC[C@](C)(OC1O[C@H](CO)[C@@H](O)[C@H](O)[C@H]1O)[C@H]1CC[C@]2(C)[C@@H]1[C@H](O)C[C@@H]1[C@@]3(C)CC[C@H](O)C(C)(C)[C@@H]3CC[C@]12C (stereo partly shown) has what recorded Tmax? 2.8

###

- method summary: Multiple-dose trial, plasma pharmacokinetics
- Type: in vivo, human
- assay setup: both sexes, human, plasma, po, 100 mg, 100 mg oral after breakfast, Day 1, read-out: Cmax
measured parameter: Cmax (ng/mL)
Dear colleague, please return just the value in ng/mL, with no unit written.

Item CC(C)=CCC[C@](C)(OC1O[C@H](CO)[C@@H](O)[C@H](O)[C@H]1O)[C@H]1CC[C@]2(C)[C@@H]1[C@H](O)C[C@@H]1[C@@]3(C)CC[C@H](O)C(C)(C)[C@@H]3CC[C@]12C (stereo partly shown) has what recorded Cmax? 1120

###

- method summary: Multiple-dose trial, plasma pharmacokinetics
- Assay type: in vivo, human
- assay setup: both sexes, human, plasma, po, 100 mg, 100 mg qd oral after breakfast, Day 15
measured parameter: AUC(0-t) (ng·h/mL)
Dear colleague, please return just the value in ng·h/mL, with no unit written.

Item CC(C)=CCC[C@](C)(OC1O[C@H](CO)[C@@H](O)[C@H](O)[C@H]1O)[C@H]1CC[C@]2(C)[C@@H]1[C@H](O)C[C@@H]1[C@@]3(C)CC[C@H](O)C(C)(C)[C@@H]3CC[C@]12C (stereo partly shown) [CK] has what recorded AUC(0-t)? 10400

###

- method summary: Multiple-dose trial, plasma pharmacokinetics
- Type: in vivo, human
- assay setup: both sexes, human, plasma, oral, 400 mg, Day 1, 100, 200 or 400 mg, read-out: median Tmax across the dose groups
measured parameter: Tmax

Item CC(C)=CCC[C@](C)(OC1O[C@H](CO)[C@@H](O)[C@H](O)[C@H]1O)[C@H]1CC[C@]2(C)[C@@H]1[C@H](O)C[C@@H]1[C@@]3(C)CC[C@H](O)C(C)(C)[C@@H]3CC[C@]12C (stereo partly shown) has what recorded Tmax? 2.5 to 3 h

###

- method summary: Single-dose trial, plasma pharmacokinetics
- Assay type: in vivo, human
- assay setup: both sexes, human, plasma, oral; single-dose trial, 25–800 mg; read-out: mean t1/2 across the dose groups
- Procedure: Single-dose pharmacokinetics: The single-dose trial was performed first. […] Drinking before and after medication was prohibited for 2 h, but the amount and time of drinking were not strictly controlled at other times. […] All samples were preserved at −70°C and analyzed with a LC-MS/MS (API 4000 LC-MS/MS, ABI Company, Foster City, CA, USA) at the Institute of Clinical Pharmacology, Central South University (Changsha, China). […]
measured parameter: half-life

Item CC(C)=CCC[C@](C)(OC1O[C@H](CO)[C@@H](O)[C@H](O)[C@H]1O)[C@H]1CC[C@]2(C)[C@@H]1[C@H](O)C[C@@H]1[C@@]3(C)CC[C@H](O)C(C)(C)[C@@H]3CC[C@]12C (stereo partly shown) has what recorded half-life? 13.5 to 26.2 h
